This collection of values is drawn from the supplement of paper PMC6555819.

System: FXR:RXRa (NR concentration 270 nM, RXRa partner concentration 90 nM)
Test: PBM binding z-score (relative to random genomic background probes); higher = stronger binding; sequences stand for … in GC…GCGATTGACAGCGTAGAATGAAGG
RECORDED_ENDPOINT: PBM binding z-score
Would you mind answering with just the numeric figure?

Would you please look over these solved cases?
SEQUENCE_STRING: CCTACTGAGCCAAGGTCATTGATCAGTCAAAGCA
TARGET: FXR:RXRa (NR concentration 270 nM, RXRa partner concentration 90 nM)
PBM binding z-score: 3.46

SEQUENCE_STRING: CGTCCAAGGTCAGAGAGGTCCGTGAATGCCGAGT
TARGET: FXR:RXRa (NR concentration 270 nM, RXRa partner concentration 90 nM)
PBM binding z-score: 4.9

SEQUENCE_STRING: CAAACTAGGTGAAAGGTCAAAGTCGAGCCAACCA
TARGET: FXR:RXRa (NR concentration 270 nM, RXRa partner concentration 90 nM)
PBM binding z-score: 6.87

SEQUENCE_STRING: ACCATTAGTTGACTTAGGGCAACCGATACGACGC
TARGET: FXR:RXRa (NR concentration 270 nM, RXRa partner concentration 90 nM)
PBM binding z-score: 0.502

SEQUENCE_STRING: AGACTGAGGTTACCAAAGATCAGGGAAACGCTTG
TARGET: FXR:RXRa (NR concentration 270 nM, RXRa partner concentration 90 nM)
PBM binding z-score: 1.67

// next item, PBM binding z-score requested
Fill in the recorded PBM binding z-score for this sequence, with FXR:RXRa (NR concentration 270 nM, RXRa partner concentration 90 nM) as test system: `GCAGTCAGGTGAAACGCAGGTAACTCAGGGTGGC` 0.205
